Biological target: T1, canine OX40L, full length membrane form, expressed on HEK293 cells (canine)
T1 chain: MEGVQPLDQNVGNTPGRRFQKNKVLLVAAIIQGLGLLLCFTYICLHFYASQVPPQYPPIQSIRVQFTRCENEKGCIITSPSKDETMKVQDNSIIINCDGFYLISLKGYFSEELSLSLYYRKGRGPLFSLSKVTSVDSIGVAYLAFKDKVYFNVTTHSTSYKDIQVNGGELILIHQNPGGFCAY
Experiment: cell-based or functional assay
# label = T if % Signal Inhibition Average < 70% else F

Incoming: Item PMX051 (antibody, V domains shown, also called PMX51) VH: EVQLVESGGDLVKPGGSLRLSCVASGFSFNTYHMNWVRQAPGKGLHWVAFINSDGGGTSYADTVKGRFTISRDYAKNTLYLQMNSLRAEDTAVYYCVSGSIWTHFDYWGQGTLVTVSS VL: SYVLTQLPSVSMTLRQTAHITCGGDIIGSKSVYWYQQKLGQAPVLIIYRDTNRPTGIPERFSGASSGNTATLTISGALAEDEADYYCQVWDSSTQAVFGGGTHLTVL : % Signal Inhibition Average beneath 70%, strictly?
Outgoing: F

Incoming: Item PMX293 (antibody, V domains shown) VH: EVRLLESGGDLVKPAGSLRLSCAVSGFTFSTYDMSWVRQAPGKGLQWVAYITYDGRTTSYTDTVKGRFTVSRDNAKNMLYLKMNSLRSEDAAVYYCAKAHRGWFFDHWGQGTLVTVSS VL: SYVLTQLPSVSVTLRQTARITCGGDSIGSKNVYWYQQKLGQAPVLIIYDDTSRPSGIPERFSGANSGTTATLTISGALAEDEADYYCQVWDSSTGVFGGGTHLTVL : % Signal Inhibition Average beneath 70%, strictly?
Outgoing: F

Incoming: Item PMX087 (antibody, V domains shown) VH: EVHLVESGGDLVKPGGSLRLSCVASGFTFSNYHMSWVRQAPGKGLQWVAFINSGGSGTSYADAVKGRFTISRDYAKSTLYLQMNSLRAEDTAVYYCASGYIWTHFDYWGQGTLVTVSS VL: SYVLTQLPSVSVTLRQTARITCGGDIIGSKNVYWYQQKLGQAPILIIYRDSNRPTGIPERFSGASSGNTATLTISGALAEDEADYYCQVWDSSTSVFGGGTHLTVL : % Signal Inhibition Average beneath 70%, strictly?
Outgoing: T
